# self-cleavage listing for each entry below
B1: HDV Ribozyme (parent)
chain: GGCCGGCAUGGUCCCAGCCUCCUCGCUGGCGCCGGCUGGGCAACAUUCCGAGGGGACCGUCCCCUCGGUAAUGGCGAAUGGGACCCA

Variants of: B1
EXPERIMENT_SUMMARY: self-cleavage, relative activity (ratio to wild type); higher = more cleavage; co-transcriptional
MEASUREMENT_LABEL: self-cleavage

>>> print(df.to_string())
                               sequence_code  data_value
 0  GGCCGGCAUGGUCCCAGCCUCCUCGCUGGCGCCGGUUGGUCAACAUUCCGAGGGGACCGUCCCCUCGGUAAUGGCGAAUGGGACCCA [C36U G40U]       0.602
 1  GGCCGGCAUGGUCCCAGCCUCCUCGCUGGCGGCGGCUGGGCAACAUUCCGAGGGGACCGUCCCCUCGGUAAUGGCGAAUUGGACCCA [C32G G80U]      0.0831
 2  GGCCGGCAUGGACCCAGCCUCCUCGCUGGCGCCGGCUGGGCAACAUUCCGUGGGGACCGUCCCCUCGGUAAUGGCGAAUGGGACCCA [U12A A51U]       0.277
 3  GGCUGGCAUGGUCCCAGCCUCCUCGCUGGCGCCGGCUGGGCAACAUUCCGAGCGGACCGUCCCCUCGGUAAUGGCGAAUGGGACCCA [C4U G53C]       0.782
 4  GGCCGGCAUGGUCCCAGCCUCCUCGCUGGCGCCGGCUGGGGAACAUUCCGAGGGGACCGUCCCCACGGUAAUGGCGAAUGGGACCCA [C41G U65A]       0.987
 5  GGCCGGCAUAGUCCCAGCCUCCUCGCUGGCGCCGUCUGGGCAACAUUCCGAGGGGACCGUCCCCUCGGUAAUGGCGAAUGGGACCCA [G10A G35U]       0.499
 6  GACCGGCAUGGUCCCAGCCUCCUCGCUGGCGCCGGCUGGGCAACAUUCCGAGGGGACCGUCCCCUCGGUAAUGGCGAACGGGACCCA [G2A U79C]      0.0804
 7  GGCCGGCAUGGUCCCUGCCUCCUCGCCGGCGCCGGCUGGGCAACAUUCCGAGGGGACCGUCCCCUCGGUAAUGGCGAAUGGGACCCA [A16U U27C]       0.587
 8  GGCCGGCAUGGUCCCAGCUUCCACGCUGGCGCCGGCUGGGCAACAUUCCGAGGGGACCGUCCCCUCGGUAAUGGCGAAUGGGACCCA [C19U U23A]       0.129
 9  GGCCGGCAUGGUCCCAGCCUCCUCGCUGGCGCCGGCUGGGCAACAUUCCGAGGGGACCGUCACCUCGGUAAUGGCGAAUGGGAACCA [C62A C84A]       0.862
10  GGCCGGCAUGGUCCCAGCCUCCUCGCUGGCGCCGGCUUGGCAACAUUCCGAGGGGACCGUCCCCUCGGUAAUGGCGAAUUGGACCCA [G38U G80U]      0.0802
11  GGCCGGCAUGGUCCCAGCCUCCUCGCUGGCGCCGGCUGGGCAACAUUCAGAGGGGACCGUCCCCUCGGUAAUGGCAAAUGGGACCCA [C49A G76A]       0.991
12  GGCCGGCAUGGUACCAGCCUCCUCGCUGGCGCCGGCUGGGCAACAUUCCAAGGGGACCGUCCCCUCGGUAAUGGCGAAUGGGACCCA [C13A G50A]       0.295
13  GGCCGGCAUGGUCCCAGCCUCCUCGCUUGCGCCGGCUGGGCUACAUUCCGAGGGGACCGUCCCCUCGGUAAUGGCGAAUGGGACCCA [G28U A42U]       0.138
14  GGCCGGCAUGGUCCCAGCCUCCUCGCUGGGGCCGGCUGGGCAACAUUCCGAGGGGACCGUCCCCUCGGUAAUGGCGAGUGGGACCCA [C30G A78G]      0.0923
15  GGCCGGCAUGGUCCCAGCCUCCUGUCUGGCGCCGGCUGGGCAACAUUCCGAGGGGACCGUCCCCUCGGUAAUGGCGAAUGGGACCCA [C24G G25U]      0.0773
16  GGCCGGCAUGGUCCCACCCUCCUCGCUGGCGCCGGCUGGGCAACAUUCCGAGGGGACCGUCCCCUCGGUAAUGGGGAAUGGGACCCA [G17C C75G]       0.111
17  GGCCGGCAUGGUCCCAGCCUCCUCGCUGGCGCCGGCUGGGCAACAUUCCGAGGGGACCGUCCACUCGGUAUUGGCGAAUGGGACCCA [C63A A71U]        1.11
18  GGCCGGCAUGGUCCCAGCCUCCUCGCUGGCGCCGGCUGGGCAACAUUCCGAGGGGACCGUCCCCUCGGUAAUGGCGAAUUGAACCCA [G80U G82A]      0.0297
19  GGCCGGCAUGGUCCCAGCCUCCUCGCUGGCGCCGGCUGGGCAACAUCCCGAGGGGACCGUCCCCUCGGUAAUGGCGAAUGGGACCCA [U47C]       0.906
20  GGCCGGCAUGGUCCCAGCCUCCUCGCUGGCGCCGGCUGGGCAACAUUCCGAGGGGACCGUCCACUCGGUAAUGGCGAAUGGGAACCA [C63A C84A]        0.96
21  GGCCGGCAUGGUCCCAGCCUCCUCGCUGGCGCCGGCUGGGCUACAUUCCGAGGGGACCGUCCCCUCGGUAAUGGCCAAUGGGACCCA [A42U G76C]       0.639
22  GGCCGGCAUGGUCCCAGCCUCGUCGCUGGCGCCGGCUGGGCAACAUUCCGAGGGGACCGUCGCCUCGGUAAUGGCGAAUGGGACCCA [C22G C62G]       0.111
23  GGCCGGCAUGGUCCCAGCCUCCUCGCUAGCGCCGGCUGGGCAACAUUCCGAGGGGACCGUCCCCUCGGUAAUGGCUAAUGGGACCCA [G28A G76U]      0.0923
24  GGCCGGCAUGGUCCCAGCCUCCUCGCUGGCGCCGGCUUGGCAACAUUCCGAGGGGACCGUCCCCUCGGUAAUGGCGAAUGGUACCCA [G38U G82U]       0.129
25  GGCCGGCAUGGUCCCAGCCUCCUCGCUGGCGCCGGCUGGGCAACAUUCCGAGGGGACCACCCCCUCGGUAAUGGCGAAUGGGACCCA [G59A U60C]        1.12
26  GGCCGGCAUAGUCCCAGCCUCAUCGCUGGCGCCGGCUGGGCAACAUUCCGAGGGGACCGUCCCCUCGGUAAUGGCGAAUGGGACCCA [G10A C22A]      0.0528
27  GGCCGGCUUGGUCCCAGCCUCCUCGCUGGCGCCGGCUGGGCAACAUUCCUAGGGGACCGUCCCCUCGGUAAUGGCGAAUGGGACCCA [A8U G50U]       0.848
28  GGCCGGCCUGGUCCCAGCCUCCUAGCUGGCGCCGGCUGGGCAACAUUCCGAGGGGACCGUCCCCUCGGUAAUGGCGAAUGGGACCCA [A8C C24A]       0.434
29  GGCCGGCAUGGUCCCAUCAUCCUCGCUGGCGCCGGCUGGGCAACAUUCCGAGGGGACCGUCCCCUCGGUAAUGGCGAAUGGGACCCA [G17U C19A]       0.166
30  GGCCGGCAUGGUCCCAGCCUCCUCGCUGUCGCCGGCUGGGCAACAUUCCGAGGGGACCGUCCCCUAGGUAAUGGCGAAUGGGACCCA [G29U C66A]       0.201
31  GGCCGGCAUGGUCCGAGCCUCCUGGCUGGCGCCGGCUGGGCAACAUUCCGAGGGGACCGUCCCCUCGGUAAUGGCGAAUGGGACCCA [C15G C24G]       0.196
32  GGCCUGCAUGGUCCCAGCCUCCUCGCUGGCGCCGGCUGGGCAACAUUCCGAGGGGACCGUCCCCUCGGUAAUGGCGAAUGGGACACA [G5U C85A]       0.594
33  CGCCGGCCUGGUCCCAGCCUCCUCGCUGGCGCCGGCUGGGCAACAUUCCGAGGGGACCGUCCCCUCGGUAAUGGCGAAUGGGACCCA [G1C A8C]           0
34  GGCCGGCAUGGUCCCAGCCUCCUCGCGGGCGCCGGCUGGGCAACAUUCCGAGGGGACCGUCCCCUCGGUAAUGGCGAAUGCGACCCA [U27G G81C]       0.277
35  GGCCGGCAAGGUCCCAGCCUCCUCGCUGGCGCCGGCUGGGCAACAUUCCGAGGGGACCGUCCCGUCGGUAAUGGCGAAUGGGACCCA [U9A C64G]       0.759
36  GCCCGGCCUGGUCCCAGCCUCCUCGCUGGCGCCGGCUGGGCAACAUUCCGAGGGGACCGUCCCCUCGGUAAUGGCGAAUGGGACCCA [G2C A8C]      0.0639
37  GGCCGGCAUGGUCCCAGCCUCCUCGCUGGCGCCGGAUGGGCAACAUUCCGAGGGGACCGUCCCCUCGGUAAUGACGAAUGGGACCCA [C36A G74A]           0
38  GGCCGGCAUGGUCCCAGCCUCCUCGCUGGCGCCGGCUGGGCAACAUUCAGAGGGGACCGUCCCCUCGGUAAUGGCGAAUGGGACACA [C49A C85A]        1.13
39  GGCCGGCUUGGUCCCAGCCUCCUCGCUGGCGCCGGCUGGGCAACAUUCAGAGGGGACCGUCCCCUCGGUAAUGGCGAAUGGGACCCA [A8U C49A]        1.13
40  GGCCGGCAUGGUCCCAGCCUCCUCGCAGGCGCCGGCUGGGCAACAUUGCGAGGGGACCGUCCCCUCGGUAAUGGCGAAUGGGACCCA [U27A C48G]        1.09
41  GGACGGCAUGGUCCCAGCCUCCUCGCUGGCGCCGGCUGGGCAACAUUCCGAGGGGACCGUCCCCUCGGUAAUGGCGAAUGGUACCCA [C3A G82U]      0.0831
42  GGCCGGCAUGGUCCCAGCCUCCUCGCUGGCGCCGGCUGGGCAACAUUCCGAGGGGACCGUCCCCUCGGUAAUGGCGAAUGGGAGCAA [C84G C86A]       0.764
43  GGCCGGCAUGGUCCCAGCCUCCUCGCUGGCGCCGGCUCGGCAACAUUCCGAGGGGACCGUCCCCUCAGUAAUGGCGAAUGGGACCCA [G38C G67A]       0.194
44  GGCCGGCAUGGUCCCAGCCUCCUCGCUGGCGCCGGCUGGGCAACAUUCCGAGGGGACGGUCCCCUCGGUAAUGGCGAAUGGGGCCCA [C58G A83G]       0.633
45  UGCCGGCAUGGUCCCAGCCUCCUCGCUGGCGCCGGCUGGGCAACACUCCGAGGGGACCGUCCCCUCGGUAAUGGCGAAUGGGACCCA [G1U U46C]       0.277

The reported numbers originate from the RNAGym collection of RNA variant scans (doi:10.7554/elife.80360).
